- PROCEDURE DETAILS: Cytotoxicity against human SKBR3 cells expressing wild type EGFR assessed as growth inhibition incubated for 1 hr prior to EGF challenge measured after 72 hrs by luciferase reporter gene assay
- Type: functional, cell-based
- ASSAY SETUP: SK-BR-3
IC50 less than 2 µM is Y; IC50 greater than or equal to 2 µM is N.

COMPOUND STRUCTURE STRING | CAT
C=CC(=O)Nc1ccc2ncnc(Nc3ccc(CC)cc3)c2c1 | Y
C=CC(=O)N1CCc2c(sc3ncnc(Nc4ccc(Br)c(C)c4)c23)C1 | N
C=CC(=O)Nc1ccc2ncnc(Nc3ccc(Br)c(C)c3)c2c1 | Y
C=CC(=O)Nc1ccc2ncnc(Nc3c(F)cccc3Br)c2c1 | Y
C=CC(=O)Nc1ccc2ncnc(Nc3ccc(Br)cc3F)c2c1 | Y
C=CC(=O)N1CCc2c(sc3ncnc(Nc4ccc(CC)cc4)c23)C1 | N
C=CC(=O)Nc1ccc2ncnc(Nc3ccccc3CC)c2c1 | N
C=CC(=O)Nc1ccc2ncnc(Nc3ccc(Br)cc3C)c2c1 | Y
C=CC(=O)Nc1ccc2ncnc(Nc3ccc(S(N)(=O)=O)cc3)c2c1 | N
C=CC(=O)Nc1ccc2ncnc(NC3CCCCC3)c2c1 | Y
C=CC(=O)Nc1ccc2ncnc(Nc3cccc(CC)c3)c2c1 | N
C=CC(=O)Nc1ccc2ncnc(Nc3cccc(C)c3F)c2c1 | Y

The measurements presented in this section are drawn from ChEMBL document CHEMBL3132827.
